These measurements were taken from patent US9079854B2.

Biological target: CB1 (Homo sapiens)
Assay: CB1 functional assay, [35S]GTP-γ-S binding
Format: biochemical
Parameters: purchased ES-110-MG; host or cells: CHO membrane extracts
Conditions: Table 9; mean of two determinations; read-out: [35S]GTP-γ-S hCB1 EC50 (nM ± SEM)
Rule: measured EC50 below 900 nM gets met; anything equal to or greater than 900 nM gets not met.

{"Compound": "CCCCCCN1C(=O)/C(=N\\NC(=O)c2ccc(OC)cc2)c2ccccc21 [Example 17]", "Category": "met"}
{"Compound": "O=C(N/N=C1\\C(=O)N(CC2CCCCC2)c2ccccc21)c1ccccc1 [Example 25]", "Category": "met"}
{"Compound": "CCCCCCN1C(=O)/C(=N\\NC(=O)OC(C)(C)C)c2ccccc21 [Example 14]", "Category": "not met"}
{"Compound": "CCCCCN1C(=O)/C(=N\\NC(=O)c2ccccc2)c2ccccc21 [Example 23]", "Category": "met"}
{"Compound": "CCCCCCN1C(=O)/C(=N\\NC(=O)c2ccccc2)c2ccccc21 [Example 6]", "Category": "met"}

---

Target: hCB2 receptor (Homo sapiens, UniProt P34972)
Construct: purchased ES-111-MG; host or cells: CHO membrane extracts
Sequence (P34972 whole entry): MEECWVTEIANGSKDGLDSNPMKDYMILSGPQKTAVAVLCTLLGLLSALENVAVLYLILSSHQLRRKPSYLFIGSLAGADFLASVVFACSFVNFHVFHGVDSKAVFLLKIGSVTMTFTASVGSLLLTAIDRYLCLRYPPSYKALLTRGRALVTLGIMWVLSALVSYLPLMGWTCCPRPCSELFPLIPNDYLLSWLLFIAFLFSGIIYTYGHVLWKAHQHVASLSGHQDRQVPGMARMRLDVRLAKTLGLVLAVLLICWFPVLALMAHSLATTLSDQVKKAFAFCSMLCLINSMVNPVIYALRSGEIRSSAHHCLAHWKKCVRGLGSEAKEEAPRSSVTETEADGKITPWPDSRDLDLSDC
Assay: CB2 functional assay, [35S]GTP-γ-S binding
Assay type: biochemical
pEC50: −log10 of the molar value.

{"Mol Smiles": "CCCCCCN1C(=O)/C(=N\\NC(=O)c2ccccc2)c2ccc(OC)cc21", "pEC50": 7.07}

---

Target: human CB1 (hCB1) receptor (Homo sapiens, UniProt P21554)
Construct: expressed in transfected cells; host or cells: CHO (Chinese hamster ovary) cells, membranes
Sequence (P21554 whole entry): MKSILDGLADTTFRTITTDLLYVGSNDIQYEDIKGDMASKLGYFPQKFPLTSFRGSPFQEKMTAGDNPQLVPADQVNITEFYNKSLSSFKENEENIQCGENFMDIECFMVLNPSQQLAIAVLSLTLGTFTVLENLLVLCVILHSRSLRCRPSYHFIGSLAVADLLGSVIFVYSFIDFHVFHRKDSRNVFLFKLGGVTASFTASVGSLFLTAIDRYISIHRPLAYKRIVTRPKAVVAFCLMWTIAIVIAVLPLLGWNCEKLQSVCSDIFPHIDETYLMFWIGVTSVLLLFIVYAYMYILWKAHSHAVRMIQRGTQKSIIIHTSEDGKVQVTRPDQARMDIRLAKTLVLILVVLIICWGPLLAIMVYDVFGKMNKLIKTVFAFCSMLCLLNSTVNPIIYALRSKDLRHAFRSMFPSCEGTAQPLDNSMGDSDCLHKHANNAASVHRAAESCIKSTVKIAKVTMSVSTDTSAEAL
Experiment: CB1 binding assay, competitive binding of [3H]CP 55940
Conditions: at 1 μM; specific binding of [3H]-CP55940; CHO membranes
Observation Type: inhibition at 1 µM (%)

{"Mol Smiles": "CCCCCCN1C(=O)/C(=N\\NC(=O)c2ccccc2)c2cc(F)ccc21", "Observation Type": "inhibition at 1 µM", "Comparison Operator": "=", "Quantitative Result": 57}
{"Mol Smiles": "CCCCCCN1C(=O)/C(=N\\NC(=O)C23CC4CC(CC(C4)C2)C3)c2ccccc21", "Observation Type": "inhibition at 1 µM", "Comparison Operator": ">", "Quantitative Result": 85}
{"Mol Smiles": "O=C(N/N=C1\\C(=O)N(CC2CCCCC2)c2ccccc21)c1ccccc1", "Observation Type": "inhibition at 1 µM", "Comparison Operator": "=", "Quantitative Result": 99}
{"Mol Smiles": "CCCCCCN1C(=O)/C(=N\\NC(=O)c2ccccc2)c2cc(C)ccc21", "Observation Type": "inhibition at 1 µM", "Comparison Operator": "=", "Quantitative Result": 22}
{"Mol Smiles": "O=C(N/N=C1\\C(=O)N(Cc2ccc(Cl)cc2)c2ccccc21)c1ccccc1", "Observation Type": "inhibition at 1 µM", "Comparison Operator": "=", "Quantitative Result": 94.5}
{"Mol Smiles": "CCCCCCCCCCCCN1C(=O)/C(=N\\NC(=O)c2ccccc2)c2ccccc21", "Observation Type": "inhibition at 1 µM", "Comparison Operator": "=", "Quantitative Result": 23.8}
{"Mol Smiles": "CCCCCCN1C(=O)/C(=N\\NC(=O)c2ccccc2)c2ccccc21", "Observation Type": "inhibition at 1 µM", "Comparison Operator": "=", "Quantitative Result": 95.5}
{"Mol Smiles": "CCCCCCN1C(=O)/C(=N/NC(=O)OC(C)(C)C)c2ccccc21", "Observation Type": "inhibition at 1 µM", "Comparison Operator": "=", "Quantitative Result": 75}

---

Biological target: human CB1 (hCB1) receptor (Homo sapiens, UniProt P21554)
Construct: expressed in transfected cells; host or cells: CHO (Chinese hamster ovary) cells, membranes
Experiment: CB1 binding assay, competitive binding of [3H]CP 55940
Conditions: CB1; Test Concentration 1.0E−05 (MD); 2nd determination
Catalogue of compounds with associated % of Control Specific Binding 2nd
Observation Type: % of Control Specific Binding 2nd (%)

{"Mol Smiles": "CCCCCCN1C(=O)/C(=N\\NC(=O)Nc2ccccc2)c2ccccc21", "Target Entity": "human CB1 (hCB1) receptor (Homo sapiens, UniProt P21554)", "Observation Type": "% of Control Specific Binding 2nd", "Value Unit": "%", "Quantitative Result": 61.4}
{"Mol Smiles": "O=C(N/N=C1\\C(=O)N(CCC2CCCCC2)c2ccccc21)c1ccccc1", "Target Entity": "human CB1 (hCB1) receptor (Homo sapiens, UniProt P21554)", "Observation Type": "% of Control Specific Binding 2nd", "Value Unit": "%", "Quantitative Result": 7.7}
{"Mol Smiles": "CCCCCCN1C(=O)/C(=N\\NS(=O)(=O)c2ccccc2)c2ccccc21", "Target Entity": "human CB1 (hCB1) receptor (Homo sapiens, UniProt P21554)", "Observation Type": "% of Control Specific Binding 2nd", "Value Unit": "%", "Quantitative Result": 96.1}
{"Mol Smiles": "O=C(N/N=C1\\C(=O)N(CCC2CCCCC2)c2ccccc21)Nc1ccccc1", "Target Entity": "human CB1 (hCB1) receptor (Homo sapiens, UniProt P21554)", "Observation Type": "% of Control Specific Binding 2nd", "Value Unit": "%", "Quantitative Result": 78.5}
{"Mol Smiles": "O=C1/C(=N\\NC(=S)Nc2ccccc2)c2ccccc2N1CCC1CCCCC1", "Target Entity": "human CB1 (hCB1) receptor (Homo sapiens, UniProt P21554)", "Observation Type": "% of Control Specific Binding 2nd", "Value Unit": "%", "Quantitative Result": 59.6}

---

Biological target: CB1 (Homo sapiens, UniProt P21554)
Assay: CB1 functional assay, [35S]GTP-γ-S binding
Format: biochemical
Set-up: purchased ES-110-MG; host or cells: CHO membrane extracts
Details: Table 7; relative to the efficacy of CP55940
Parameter threshold = 70%. Response is class 1 when Emax meets or exceeds it, else class 0.

{"Molecule": "CCCCCCC(C)(C)c1ccc([C@@H]2C[C@H](O)CC[C@H]2CCCO)c(O)c1 [CP55,940, reference compound]", "Category": "class 1"}
{"Molecule": "CCCCCCN1C(=O)/C(=N\\NC(=O)c2ccccc2)c2ccccc21 [Example 6]", "Category": "class 0"}
{"Molecule": "O=C(N/N=C1\\C(=O)N(CCC2CCCCC2)c2ccccc21)c1ccccc1 [Example 5]", "Category": "class 0"}
{"Molecule": "O=C(Cc1ccccc1)N/N=C1\\C(=O)N(CCC2CCCCC2)c2ccccc21 [Example 10]", "Category": "class 1"}

---

Molecular target: hCB2 receptor (Homo sapiens, UniProt P34972)
Construct: purchased ES-111-MG; host or cells: CHO membrane extracts
Assay: CB2 functional assay, [35S]GTP-γ-S binding
Assay type: biochemical
Details: Table 9; relative to the efficacy of CP 55,940

{"Molecule": "CCCN1C(=O)/C(=N\\NC(=O)c2ccccc2)c2ccccc21 [Example 21]", "Target Entity": "hCB2 receptor (Homo sapiens, UniProt P34972)", "Emax (%)": 61.4}
{"Molecule": "O=C(N/N=C1\\C(=O)N(CC2CCCCC2)c2ccccc21)c1ccccc1 [Example 25]", "Target Entity": "hCB2 receptor (Homo sapiens, UniProt P34972)", "Emax (%)": 65.7}
{"Molecule": "CCCCCCN1C(=O)/C(=N\\NC(=O)c2ccccc2)c2cc(F)ccc21 [Example 33]", "Target Entity": "hCB2 receptor (Homo sapiens, UniProt P34972)", "Emax (%)": 33.8}
{"Molecule": "O=C(N/N=C1\\C(=O)N(Cc2ccc(Cl)cc2)c2ccccc21)c1ccccc1 [Example 26]", "Target Entity": "hCB2 receptor (Homo sapiens, UniProt P34972)", "Emax (%)": 39.8}
{"Molecule": "CCCCCCC(C)(C)c1ccc([C@@H]2C[C@H](O)CC[C@H]2CCCO)c(O)c1 [CP55,940, reference compound]", "Target Entity": "hCB2 receptor (Homo sapiens, UniProt P34972)", "Emax (%)": 100}

---

Molecular target: UniProt P21554
Assay: CB1 functional assay, [35S]GTP-γ-S binding
Type: biochemical
Set-up: purchased ES-110-MG; host or cells: CHO membrane extracts
Conditions: Table 9; relative to the efficacy of CP 55,940
Observation Type: Emax (%)

{"Compound": "O=C(N/N=C1\\C(=O)N(Cc2ccc(Cl)cc2)c2ccccc21)c1ccccc1", "Observation Type": "Emax", "Value Unit": "%", "Quantitative Result": 72}
{"Compound": "CCCCCCN1C(=O)/C(=N\\NC(=O)c2ccccc2)c2ccccc21", "Observation Type": "Emax", "Value Unit": "%", "Quantitative Result": 59.7}
{"Compound": "CCCCCCN1C(=O)/C(=N\\NC(=O)c2ccc(OC)cc2)c2ccccc21", "Observation Type": "Emax", "Value Unit": "%", "Quantitative Result": 71}
{"Compound": "CCCCCN1C(=O)/C(=N\\NC(=O)c2ccccc2)c2ccccc21", "Observation Type": "Emax", "Value Unit": "%", "Quantitative Result": 95.1}
{"Compound": "CCCCCCN1C(=O)/C(=N\\NC(=O)OC(C)(C)C)c2ccccc21", "Observation Type": "Emax", "Value Unit": "%", "Quantitative Result": 92}
{"Compound": "CCCCCCC(C)(C)c1ccc([C@@H]2C[C@H](O)CC[C@H]2CCCO)c(O)c1 [CP55,940, reference compound]", "Observation Type": "Emax", "Value Unit": "%", "Quantitative Result": 100}
{"Compound": "O=C(N/N=C1\\C(=O)N(CC2CCCCC2)c2ccccc21)c1ccccc1", "Observation Type": "Emax", "Value Unit": "%", "Quantitative Result": 99}
